Molecular target: CDK4/CyclinD1 (Homo sapiens (Human))
Sequence (P11802 whole entry, species assumed): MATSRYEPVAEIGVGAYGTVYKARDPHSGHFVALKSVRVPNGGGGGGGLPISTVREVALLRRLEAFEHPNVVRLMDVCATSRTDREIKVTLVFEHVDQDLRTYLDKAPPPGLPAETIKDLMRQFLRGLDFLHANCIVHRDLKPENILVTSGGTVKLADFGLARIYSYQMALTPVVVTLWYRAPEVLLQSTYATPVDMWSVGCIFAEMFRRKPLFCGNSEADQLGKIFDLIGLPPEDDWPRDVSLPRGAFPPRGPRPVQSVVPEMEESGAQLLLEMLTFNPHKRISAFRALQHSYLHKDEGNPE
Sequence (P24385 whole entry partner, species assumed): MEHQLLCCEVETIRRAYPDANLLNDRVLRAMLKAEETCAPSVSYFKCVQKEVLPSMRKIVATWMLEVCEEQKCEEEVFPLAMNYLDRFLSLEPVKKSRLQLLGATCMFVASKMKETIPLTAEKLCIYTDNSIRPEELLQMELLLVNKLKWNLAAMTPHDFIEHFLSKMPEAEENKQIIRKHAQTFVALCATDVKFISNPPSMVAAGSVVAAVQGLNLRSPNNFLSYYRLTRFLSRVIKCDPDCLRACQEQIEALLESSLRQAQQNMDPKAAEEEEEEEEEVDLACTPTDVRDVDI
Assay: CDK4/CyclinD1 kinase assay (Nanosyn, Caliper microfluidic)
Format: biochemical
Conditions: Table 2; read-out: CDK4/CycD1 IC50
Category scheme (IC50): low interval (below 2 nM), middle interval (2 nM to below 4 nM), high interval (4 nM or more)

Below are worked cases with known answers.
C[C@H]1CN(c2ccc(Nc3ncc4cc5n(c4n3)C3(CCCCC3)CNC5=O)nc2)CCN1    middle interval
CCN(CC)C1CCN(C(=O)c2ccc(Nc3ncc4cc5n(c4n3)C3(CCCCC3)CNC5=O)nc2)C1 (stereo not drawn)    low interval
CCC(C)CN1CCN(c2ccc(Nc3ncc4cc5n(c4n3)C3(CCCC3)CNC5=O)nc2)CC1 (stereo not drawn) [AAA]    middle interval
O=C1NCC2(CCCCC2)n2c1cc1cnc(Nc3ccc(N4CCN(CC5CC5)CC4)cn3)nc12    low interval
C[C@H]1CN(c2ccc(Nc3ncc4cc5n(c4n3)C3(CCCCC3)CNC5=O)nc2)CCN1CC1CC1    low interval

Input: Which IC50 category applies to CN(C)C1CCN(c2ccc(Nc3ncc4cc5n(c4n3)C3(CCCC3)CNC5=O)nc2)CC1 here?
Output: high interval

Input: Consider next the compound CC(C)N1CCN(c2ccc(Nc3ncc4cc5n(c4n3)C3(CCCC3)CNC5=O)nc2)CC1C (stereo not drawn) in the same way.
Output: high interval

Input: Consider next the compound C[C@H]1CN(c2ccc(Nc3ncc4cc5n(c4n3)C3(CCCCC3)CNC5=O)nc2)CCN1C in the same way.
Output: low interval

Input: Consider next the compound O=C1NCC2(CCCCC2)n2c1cc1cnc(Nc3ccc(N4CCC(N5CCCCC5)CC4)cn3)nc12 in the same way.
Output: low interval

Input: Consider next the compound CC(C)N1CCN(c2ccc(Nc3ncc4cc5n(c4n3)C3(CCCCC3)CNC5=O)nn2)CC1 in the same way.
Output: low interval

Input: Consider next the compound C[C@@H]1CN(c2ccc(Nc3ncc4cc5n(c4n3)C3(CCCCC3)CNC5=O)nc2)C[C@H](C)N1C in the same way.
Output: low interval

Input: Consider next the compound CC(C)[C@H]1CNC(=O)c2cc3cnc(Nc4ccc(N5CCNCC5)cn4)nc3n21 in the same way.
Output: high interval

Input: Consider next the compound C[C@H](O)CN1CCN(c2ccc(Nc3ncc4cc5n(c4n3)C3(CCCCC3)CNC5=O)nc2)C[C@@H]1C in the same way.
Output: low interval

Input: Consider next the compound O=C1NCC2(CCCCC2)n2c1cc1cnc(Nc3ccc(N4CCN(C5CCC5)CC4)cn3)nc12 in the same way.
Output: low interval

Input: Consider next the compound CN1CCN(c2ccc(Nc3ncc4cc5n(c4n3)C3(CCCC3)CNC5=O)nc2)CC1 in the same way.
Output: high interval

Hey, just so you know, these numbers are from patent US9464092B2.
